Please provide measured TGI for the entries that follow.
System: HT29 colon
test details: NCI tumour cell line growth inhibition, 48 h
Please state the figure in µM; there is no need to write the unit.

So for COc1cccc(/C=C/c2cnc3ccccc3n2)c1OC , the logged TGI turned out to be 98.1

compound C=C1C(=O)O[C@H]2[C@H]1CC/C(COC(=O)NCCc1c[nH]c3ccc(OC)cc13)=C\CC[C@@]1(C)O[C@@H]21 , TGI observed: 3.09

* * *

Tested on: SK-MEL-2 melanoma
test details: NCI tumour cell line growth inhibition, 48 h
Kindly state TGI for each of the entries shown.

Item C=CC1CC12C(=O)C1OC2(C)C2C(=O)c3c(O)ccc(O)c3C(=O)C12 (stereo not given) was tested on SK-MEL-2 melanoma; the reported TGI is > 100 µM

Log: SK-MEL-2 melanoma, compound CCOC(=O)CNC(=O)C(C)NC(=O)C(NC(=O)CC(c1ncc[nH]1)c1ncc[nH]1)C(C)CC (stereo not given) , TGI = > 100 µM

Entry O=c1[nH]cnc2[nH]ncc12 , tested on SK-MEL-2 melanoma, has a reported TGI of > 5000 µM

# lookup: O=C1CN(C(=O)c2ccccc2)Cc2[nH]c3ccccc3c21 on SK-MEL-2 melanoma, TGI = > 100 µM

// TGI (SK-MEL-2 melanoma) for NC1=NC(c2ccc(Cl)cc2)C2=C(N1)/C(=C/c1ccc(Cl)cc1)CCC2 (stereo not given) = > 70.2 µM

Kindly note: SK-MEL-2 melanoma, COc1cc(/C=C2\N=C(c3ccccc3)N(c3nc4c(OC)ccc(OC)c4s3)C2=O)cc(OC)c1OC , TGI value reported: > 100 µM

Param item: COC(=O)n1c(=O)n(-c2ccccc2)c(=O)n1C(=O)OC ; param system: SK-MEL-2 melanoma; output TGI: > 100 µM

Form: item COc1cccc(/C=N/[N-]C(N)=O)c1[O-].[Ni+2].[OH3+].c1cnc2c(c1)ccc1cccnc12 ; test system SK-MEL-2 melanoma; TGI: > 100 µM

Summary line: Cc1ccc2c(c1)NC(=O)CC(c1ccccc1)=N2 , SK-MEL-2 melanoma, reported TGI = > 100 µM

Kindly note: SK-MEL-2 melanoma, O=C(O)c1cc(N=Cc2ccccc2O)cc(C(=O)O)c1 , TGI value reported: > 100 µM

* * *

Tested on: HL-60(TB) leukemia
test details: NCI tumour cell line growth inhibition, 48 h
property label: TGI

Query Cc1cccc(C2=NC(C)(C)C(C)(C)N=C2c2cccc(C)n2)n1 yields TGI of > 100 µM

Lab book: TGI of CCCCOC(=O)NC(=O)c1cn(CCSCCOC(=O)NCCCCCCNC(=O)OCCSCCn2cc(C(=O)NC(=O)OCCCC)c(=O)[nH]c2=O)c(=O)[nH]c1=O noted as > 100 µM

Entry O=C1Nc2cc([N+](=O)[O-])ccc2NC1/C(=N\Nc1ccccc1)C(O)c1cccc([N+](=O)[O-])c1 (configuration not stated) — recorded TGI = > 100 µM

Record CC1=CCC23C(C1)OC(Br)(C=CC2(C)O)C3(C)C (configuration not stated) , field TGI: > 100 µM

The compound identified as CCOC(=O)/C=C(\C(=O)OCC)n1ccc(N)nc1=O registered its TGI at > 100 µM

Reported TGI of NC(N)=NNC(=O)CCCCCCCC(=O)NN=C(N)N : > 100 µM

Entry C#Cc1c(C(N)=O)ncn1C1OC(COP(=O)(OCc2ccc([N+](=O)[O-])o2)N(C)CCCCCl)C(O)C1O (configuration not stated) , TGI reported as > 100 µM

Value of TGI reported for the compound CC(CO)C1C[C@H](O)[C@@]2(C)CC(=O)C=C(CO)[C@@H]2C1 (some centres not stated) is > 100 µM

Looking up CC(=O)CCCCO , I see its TGI listed as > 100 µM

# compound Cc1sc(/N=C/c2c[nH]c3ccccc23)c(C#N)c1C ; its TGI = > 100 µM

N#CCc1ncc(-c2ccc(C(F)(F)F)cc2)c(NC2CCCCCC2)n1 yielded TGI of > 10 µM

The compound O=c1cc(N2CCCC2)[nH]c(=O)n1-c1cccc(C(F)(F)F)c1 showed TGI equal to > 100 µM

For this compound ( COc1cc2cc(C(=O)N3CC(COS(C)(=O)=O)c4c3cc(N)c3ccccc43)[nH]c2c(OC)c1OC (configuration not stated) ), measured TGI is > 100 µM

Lab note: COC(=O)C1(F)C(=O)NC(=O)NC1O (configuration not stated) gave TGI of > 100 µM

The recorded TGI for entry COC(=O)/C=C1\CCC(C)(C(=O)NS(=O)(=O)c2ccc(C)cc2)C1(C)C (configuration not stated) equals > 100 µM

Short answer for O=C1C(=O)N(c2ccc(Cl)cc2Cl)C(=O)C(=O)C1c1nc2ccccc2o1 : TGI was > 100 µM

The recorded TGI for Cc1ccc(-c2cc(C3=CC(=O)C=CC3=O)n(-c3ccc(S(N)(=O)=O)cc3)n2)cc1 is > 100 µM

* * *

System: NCI-H226 lung
test details: NCI tumour cell line growth inhibition, 48 h
Please respond with reported GI50 for every item in the list.

Sample COC(=O)[C@]12CC[C@@H](C)[C@H](C)[C@@H]1C1=CC[C@@H]3[C@@]4(C)C=C(O)C(=O)[C@@]5(C)COC(=C54)C[C@@]3(C)[C@]1(C)CC2 ; GI50 observed: 15.1 µM

Lab note: COc1ccc(C(=O)c2cc3c(OC)c(OC)c(OC)cc3[nH]2)cc1 gave GI50 of > 100 µM

Form: compound = CCCCCCCCCCCCSC(=N)N ; GI50 = 18.5 µM

O=C(Nc1ccc(Cl)cc1)c1cc(-c2ccc(Cl)cc2)c2sc(=O)[nH]c2n1 yielded GI50 of 2.26 µM

GI50 recorded for this compound, C=CC1CC12C(=O)C1OC2(C)C2C(=O)c3c(O)ccc(O)c3C(=O)C12 (centres undefined) , is 5.8 µM

Consider O=C(Nc1ccccc1O)c1ccc(Oc2cccc(C(=O)Nc3ccccc3O)c2)cc1 . Its measured GI50 is 2.06 µM

For this compound ( C=CCC(N[C@H](CO)c1ccccc1)c1cn(C(=O)OCC)c2ccccc12 (some centres undefined) ), measured GI50 is 15.2 µM

Lab book: GI50 of C=C1C(=O)O[C@H]2[C@H]1CC/C(COC(=O)NCCc1c[nH]c3ccc(OC)cc13)=C\CC[C@@]1(C)O[C@@H]21 noted as 1.88 µM

get_value(item= O=Nc1ccc2ccccc2c1O , readout=GI50) returns 12.4 µM

Input Cc1c2c[n+](C(C)C)ccc2c(C)c2c1[nH]c1ccccc12 . Output GI50: 4.32 µM

The reported value for Cc1c(C)[n+](=O)c(C)c(C)n1[O-] in terms of GI50 is > 100 µM

Measured GI50, O=C(c1ccco1)c1c(C(F)(F)F)n([O-])c2ccccc2[n+]1=O : 0.665 µM

GET /value?item= N#C[S-].[Nd+3].c1ccc(-c2ccccn2)nc1.c1ccc(-c2ccccn2)nc1.c1ccc(-c2ccccn2)nc1 &field=GI50 returns 2.89 µM

Just so you know, measured GI50 for CC(C)NC(=O)OCc1c(COC(=O)NC(C)C)c(-c2ccc(Cl)cc2)n2c1CCC2 came out at 2.31 µM

* * *

System: RXF 393 renal
test details: NCI tumour cell line growth inhibition, 48 h
Assignment: determine reported TGI for the given compounds.
Provide the reading as a plain figure in µM.

Item: C/C(=N\N=C(/[Se])N1CC2CCC(CC2)C1)c1ccccn1 | TGI: 0.359

Briefly, TGI measured for O=C(c1ccccc1)c1ccc2nc(-c3c(Cl)c(Cl)c(Cl)c(Cl)c3C(=O)N/N=C/c3ccccc3)[nH]c2c1 : 73.2

In plain terms, COc1cc2c[n+](C)c3c4ccccc4ccc3c2cc1OC (tested in a mixture with another compound) has a documented TGI of 54.4

For C=C1C(=O)O[C@H]2[C@H]1CC/C(COC(=O)NCCc1c[nH]c3ccc(OC)cc13)=C\CC[C@@]1(C)O[C@@H]21 the compound record lists TGI as 2.92

response.value for C=C(CC[C@@H](C(=O)O)[C@H]1[C@H](O)C[C@@]2(C)C3=CC[C@@H](C(=C)C)[C@](C)(CCC(=O)O)C3=CC[C@]12C)C(C)C (field: TGI) = 34.5

Measured TGI of CC(C)NC(=O)OCc1c(COC(=O)NC(C)C)c(-c2ccc(Cl)cc2)n2c1CCC2 : 4.32

Lab book: TGI of COc1cccc2c1C(=O)c1c(O)c3c(c(O)c1C2=O)C[C@@](O)(C(=O)CO)C[C@@H]3OC1C[C@H](N)[C@H](O)[C@H](C)O1 (some centres undefined) noted as 0.25

response.value for CC(C)(C)C(=O)ON1N=NC2C3CC(OCc4ccccc4)(OCc4ccccc4)C(O3)C21 (centres undefined) (field: TGI) = 36.5
